targetEntity: human TLR7 (Homo sapiens (Human), UniProt Q9NYK1)
Sequence (Q9NYK1 27-1049): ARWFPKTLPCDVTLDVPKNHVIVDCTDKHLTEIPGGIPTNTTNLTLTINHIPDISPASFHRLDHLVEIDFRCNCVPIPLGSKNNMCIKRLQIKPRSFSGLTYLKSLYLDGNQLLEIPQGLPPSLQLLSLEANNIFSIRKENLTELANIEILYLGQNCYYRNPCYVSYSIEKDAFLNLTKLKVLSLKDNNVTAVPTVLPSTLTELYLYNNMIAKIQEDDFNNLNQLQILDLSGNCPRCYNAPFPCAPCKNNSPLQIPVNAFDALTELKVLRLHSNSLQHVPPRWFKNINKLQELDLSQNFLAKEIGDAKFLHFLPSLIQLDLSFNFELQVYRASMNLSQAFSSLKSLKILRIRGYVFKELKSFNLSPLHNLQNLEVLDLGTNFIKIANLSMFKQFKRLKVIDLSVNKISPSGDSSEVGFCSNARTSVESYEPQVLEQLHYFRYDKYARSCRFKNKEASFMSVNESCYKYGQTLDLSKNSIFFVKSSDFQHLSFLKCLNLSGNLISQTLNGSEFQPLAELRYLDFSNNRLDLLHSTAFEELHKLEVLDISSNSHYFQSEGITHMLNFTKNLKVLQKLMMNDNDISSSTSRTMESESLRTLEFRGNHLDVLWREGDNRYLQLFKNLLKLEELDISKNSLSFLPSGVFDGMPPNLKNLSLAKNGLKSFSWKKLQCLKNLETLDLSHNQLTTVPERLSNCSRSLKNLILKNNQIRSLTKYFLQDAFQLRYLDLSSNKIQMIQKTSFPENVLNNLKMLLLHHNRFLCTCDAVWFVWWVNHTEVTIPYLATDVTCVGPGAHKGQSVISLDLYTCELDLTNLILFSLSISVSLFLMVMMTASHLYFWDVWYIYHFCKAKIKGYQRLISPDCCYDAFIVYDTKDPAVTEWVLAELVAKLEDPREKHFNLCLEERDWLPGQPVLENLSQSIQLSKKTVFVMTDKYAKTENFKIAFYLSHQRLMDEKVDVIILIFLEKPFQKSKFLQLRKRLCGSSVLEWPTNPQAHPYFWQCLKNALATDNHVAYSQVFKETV
assayExplanation: TLR7 inhibition reporter assay (HEK-Blue, SEAP)
experimentalConditions: HEK-Blue cells overexpressing human TLR7, gardiquimod 7.5 μM stimulation
Reported pIC50 is given for each of the following compounds.
pIC50 (log units): -log10 of the concentration in mol/L.

The cases that follow already have their pIC50 on record.
# compound, pIC50
rows = [
    ("Cc1cc(-c2[nH]c3ccc(-c4nc(C(=O)NCCC5CCCN5)co4)cc3c2C(C)C)cc(C)n1 (stereo not drawn)", 7.17),
    ("COc1cc(-c2ccc3[nH]c(-c4ccnc5[nH]ncc45)c(C(C)C)c3c2)cnc1OC", 6.91),
    ("CC(C)c1c(-c2ccc3ncnn3c2)[nH]c2ccc(-c3nnc([C@@H]4CCCNC4)o3)cc12", 7.21),
    ("Cc1cc(-c2[nH]c3ccc(-c4nc(C)cs4)cc3c2C(C)C)ccn1", 6.00),
    ("Cc1cc(-c2[nH]c3ccc(-c4nnc(C[C@H]5CCCN5)o4)cc3c2C(C)C)ccn1", 7.47),
]

Consider the additional compound presented here.
Prompt line: Name the recorded pIC50 of CNCC(=O)N1CCC(c2nnc(-c3ccc4[nH]c(-c5ccc(OC)c(OC)c5)c(C(C)C)c4c3)o2)CC1 , assay system human TLR7 (Homo sapiens (Human), UniProt Q9NYK1).
Response line: 7.38

----------
targetEntity: human TLR8 (Homo sapiens (Human), UniProt Q9NR97)
Sequence (Q9NR97 27-1041): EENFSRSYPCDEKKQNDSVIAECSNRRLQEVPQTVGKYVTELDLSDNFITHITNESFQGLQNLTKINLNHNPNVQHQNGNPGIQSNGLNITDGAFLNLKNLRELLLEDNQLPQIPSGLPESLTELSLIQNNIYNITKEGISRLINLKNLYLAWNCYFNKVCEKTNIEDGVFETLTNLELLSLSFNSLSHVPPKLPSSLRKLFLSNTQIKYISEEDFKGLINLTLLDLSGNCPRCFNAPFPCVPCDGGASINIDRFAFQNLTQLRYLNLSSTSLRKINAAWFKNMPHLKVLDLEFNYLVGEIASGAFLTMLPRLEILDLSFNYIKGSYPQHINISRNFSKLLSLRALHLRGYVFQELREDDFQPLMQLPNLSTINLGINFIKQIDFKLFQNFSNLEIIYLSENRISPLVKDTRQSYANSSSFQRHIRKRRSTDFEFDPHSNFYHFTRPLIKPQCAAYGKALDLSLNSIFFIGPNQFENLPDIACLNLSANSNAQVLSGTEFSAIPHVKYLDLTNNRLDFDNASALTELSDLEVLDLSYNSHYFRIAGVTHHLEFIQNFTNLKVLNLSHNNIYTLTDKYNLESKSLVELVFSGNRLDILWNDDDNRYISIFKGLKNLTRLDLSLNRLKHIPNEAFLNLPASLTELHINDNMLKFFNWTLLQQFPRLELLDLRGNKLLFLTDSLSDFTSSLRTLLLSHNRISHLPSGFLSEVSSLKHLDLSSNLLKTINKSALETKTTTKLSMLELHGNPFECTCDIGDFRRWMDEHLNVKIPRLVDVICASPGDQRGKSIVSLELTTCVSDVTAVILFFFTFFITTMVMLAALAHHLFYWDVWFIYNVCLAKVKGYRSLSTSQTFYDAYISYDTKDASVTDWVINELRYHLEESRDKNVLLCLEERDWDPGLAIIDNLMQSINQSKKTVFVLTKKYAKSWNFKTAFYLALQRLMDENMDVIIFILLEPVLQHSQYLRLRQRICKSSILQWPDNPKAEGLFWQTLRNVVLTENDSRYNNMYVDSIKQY
assayExplanation: TLR8 inhibition reporter assay (HEK-Blue, SEAP)
experimentalConditions: HEK-Blue cells overexpressing human TLR8, R848 15.9 μM stimulation
pIC50: −log10 of the molar value.
So basically every entry gets a class from its pIC50, ranges being bucket 1 = under 7, bucket 2 = from 7 up to 8, bucket 3 = 8 and over

Here's what some known entries look like.
# compound, group
measured = [
    ("COc1ccc(-c2[nH]c3ccc(-c4ccnc(N5CCN(C6CCCC6)CC5)c4)cc3c2C(C)C)cc1OC", "bucket 2"),
    ("Cc1cc(-c2[nH]c3ccc(-c4nnc(C5CCCN(C)C5)o4)cc3c2C(C)C)ccn1 (centres unmarked) [Example 170]", "bucket 3"),
    ("COc1ccc(-c2[nH]c3ccc(-c4nnc(C(=O)N5CCN(c6cnccn6)CC5)o4)cc3c2C(C)C)cc1OC", "bucket 1"),
    ("Cc1cc(-c2[nH]c3ccc(-c4nnc(CCCN(C)C)o4)cc3c2C(C)C)cc(C)n1", "bucket 3"),
    ("CCc1c(-c2ccnc(C)c2)[nH]c2ccc(-c3noc(C4CCNC4)n3)cc12 (centres unmarked)", "bucket 2"),
    ("CC(C)c1c(-c2ccnc3[nH]ncc23)[nH]c2ccc(-c3cc4c(s3)CNCC4)cc12", "bucket 3"),
    ("CCc1c(-c2ccnc(C)c2)[nH]c2ccc(-c3noc(CCC4CCN(C(C)C)CC4)n3)cc12", "bucket 2"),
    ("CNc1nnc(-c2ccc3[nH]c(-c4ccnc(C)c4)c(C(C)C)c3c2)o1", "bucket 2"),
    ("CC(C)c1c(-c2ccnc3[nH]ncc23)[nH]c2ccc(-c3noc(C[C@@H]4CCCN4)n3)cc12", "bucket 3"),
    ("CC(C)c1c(-c2ccnc3n[nH]cc23)[nH]c2ccc(-c3nc(C(=O)NC4CCN(C(C)C)CC4)co3)cc12", "bucket 3"),
]

Prompt line: Classify this compound: Cc1cc(-c2[nH]c3ccc(-c4nnc(CC(C)(C)N)o4)cc3c2C(C)C)ccn1
Response line: bucket 3

Prompt line: Classify this compound: COc1ccc(-c2[nH]c3ccc(-c4ccc(C5=CCN(C6CCN(CC(C)C)CC6)CC5)cc4)cc3c2C)cc1OC
Response line: bucket 1

Prompt line: Classify this compound: CC(C)c1c(-c2ccc3nccn3c2)[nH]c2ccc(-c3nnc(C(=O)NCCN(C)C)o3)cc12
Response line: bucket 2

----------
targetEntity: human TLR9 (Homo sapiens (Human), UniProt Q9NR96)
Sequence (Q9NR96 26-1032): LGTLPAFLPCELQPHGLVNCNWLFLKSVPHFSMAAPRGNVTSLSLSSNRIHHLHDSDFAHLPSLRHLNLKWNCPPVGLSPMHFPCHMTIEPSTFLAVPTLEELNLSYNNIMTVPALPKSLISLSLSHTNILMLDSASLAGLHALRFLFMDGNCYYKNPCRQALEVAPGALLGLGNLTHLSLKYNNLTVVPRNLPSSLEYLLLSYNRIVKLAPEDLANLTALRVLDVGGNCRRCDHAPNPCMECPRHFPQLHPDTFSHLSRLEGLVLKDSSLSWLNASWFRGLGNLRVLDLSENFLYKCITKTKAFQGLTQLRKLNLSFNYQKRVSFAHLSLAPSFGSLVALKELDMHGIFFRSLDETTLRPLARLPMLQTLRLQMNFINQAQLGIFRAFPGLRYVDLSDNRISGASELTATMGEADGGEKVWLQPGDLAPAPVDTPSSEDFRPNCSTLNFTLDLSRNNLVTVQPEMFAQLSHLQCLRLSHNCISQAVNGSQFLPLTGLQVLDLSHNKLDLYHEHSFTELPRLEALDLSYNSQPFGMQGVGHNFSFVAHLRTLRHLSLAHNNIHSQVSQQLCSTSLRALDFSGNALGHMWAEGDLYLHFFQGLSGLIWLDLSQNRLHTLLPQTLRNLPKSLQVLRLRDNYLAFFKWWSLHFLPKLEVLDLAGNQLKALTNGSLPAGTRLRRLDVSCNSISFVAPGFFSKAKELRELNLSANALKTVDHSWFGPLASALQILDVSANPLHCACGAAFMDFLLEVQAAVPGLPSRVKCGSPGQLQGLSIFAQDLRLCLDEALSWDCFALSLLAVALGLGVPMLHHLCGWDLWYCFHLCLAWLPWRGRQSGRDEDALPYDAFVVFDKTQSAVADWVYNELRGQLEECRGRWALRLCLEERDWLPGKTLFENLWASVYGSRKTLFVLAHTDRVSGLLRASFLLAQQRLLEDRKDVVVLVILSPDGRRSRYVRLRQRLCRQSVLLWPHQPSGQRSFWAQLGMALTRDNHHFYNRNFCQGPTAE
assayExplanation: TLR9 inhibition reporter assay (HEK-Blue, SEAP)
experimentalConditions: HEK-Blue cells overexpressing human TLR9, ODN2006 5 nM stimulation
valueType: IC50 (nM)
Your answer should be a plain number; it is taken to be in nM.

The cases that follow already have their IC50 on record.
# compound, unitOfMeasure, IC50
data = [
    ("Cc1cc(-c2[nH]c3ccc(-c4nnc(C5CCCN(C(C)C)C5)o4)cc3c2C(C)C)ccn1 (stereo not shown) [Example 298]", "nM", 437),
    ("CCc1c(-c2ccc(OC)c(OC)c2)[nH]c2ccc(-c3noc([C@H]4C[C@H]5CC[C@@H](C4)N5)n3)cc12", "nM", 1930),
    ("Cc1cc(-c2[nH]c3ccc(-c4ccc(NC(=O)CN(C)C)nc4)cc3c2C(C)C)cc(C)n1", "nM", 451),
    ("CC(C)c1c(-c2ccnc3[nH]ncc23)[nH]c2ccc(-c3nc(C(=O)NCCN(C)C)co3)cc12", "nM", 366),
    ("COc1ccc(-c2[nH]c3ccc(-c4cccc(C(=O)N5CC6CNCC6C5)c4)cc3c2CC(F)(F)F)cc1OC (stereo not shown)", "nM", 710),
    ("Cc1cc(-c2[nH]c3ccc(-c4cc5c(s4)CN(C(=O)CN(C)C)CC5)cc3c2C(C)C)cc(C)n1", "nM", 295),
]

Prompt line: Return IC50 for the following compound: Cc1cc(-c2[nH]c3ccc(-c4nc(C(=O)NC5CCCNC5)co4)cc3c2C(C)C)cc(C)n1 (stereo not shown)
Response line: 3390

----------
Reported pIC50 is given for each of the following molecules.
targetEntity: human TLR8 (Homo sapiens (Human), UniProt Q9NR97)
assayExplanation: TLR8 inhibition reporter assay (HEK-Blue, SEAP)
experimentalConditions: HEK-Blue cells overexpressing human TLR8, R848 15.9 μM stimulation
pIC50 (log units): -log10 of the concentration in mol/L.

The cases that follow already have their pIC50 on record.
# molecule, pIC50
records = [
    ("Cc1cc(-c2[nH]c3ccc(-c4cnc(C5CCNCC5)[nH]4)cc3c2C(C)C)ccn1", 7.11),
    ("COc1ccc(-c2[nH]c3ccc(-c4ccc(N5CCN(CC(C)C)CC5)nc4)cc3c2C(C)C)cc1OC", 7.14),
    ("Cc1cc(-c2[nH]c3ccc(-c4nc(C5CCNCC5)c[nH]4)cc3c2C(C)C)ccn1", 7.37),
    ("Cc1cc(-c2[nH]c3ccc(-c4nnc(C5CCC(C(F)(F)F)CC5)o4)cc3c2C(C)C)ccn1 (centres unmarked)", 6.27),
    ("CCc1c(-c2ccc(OC)c(OC)c2)[nH]c2ccc(-c3noc([C@@H](N)CCCCN)n3)cc12", 6.74),
    ("COc1ccc(-c2[nH]c3ccc(-c4nnc(C5CCN(Cc6ccccc6)CC5)[nH]4)cc3c2C(C)C)cc1OC", 7.35),
    ("Cc1cc(-c2[nH]c3ccc(-c4nc(C(=O)NCCCCN5CCCC5)co4)cc3c2C(C)C)cc(C)n1", 8.25),
]

Consider the additional molecule presented here.
Prompt line: Return pIC50 for the following molecule: CC(=O)N1CCc2nc(-c3ccc4[nH]c(-c5cc(C)nc(C)c5)c(C(C)C)c4c3)sc2C1
Response line: 8.05

----------
targetEntity: human TLR9 (Homo sapiens (Human), UniProt Q9NR96)
assayExplanation: TLR9 inhibition reporter assay (HEK-Blue, SEAP)
experimentalConditions: HEK-Blue cells overexpressing human TLR9, ODN2006 5 nM stimulation
valueType: IC50 (nM)
Your answer should be a plain number; it is taken to be in nM.

# compound, targetEntity, unitOfMeasure, IC50
rows = [
    ("CC(C)c1c(-c2ccnc3[nH]ncc23)[nH]c2ccc(-c3cc(N4CCC(N)CC4)ncn3)cc12", "human TLR9 (Homo sapiens (Human), UniProt Q9NR96)", "nM", 1220),
    ("Cc1cc(-c2[nH]c3ccc(-c4nnc(C5CN6CCC5CC6)o4)cc3c2C(C)C)ccn1 (centres unmarked) [Example 213]", "human TLR9 (Homo sapiens (Human), UniProt Q9NR96)", "nM", 655),
    ("COc1ccc(-c2[nH]c3ccc(-c4cccc(C(=O)N5CC6CNCC6C5)c4)cc3c2C(C)C)cc1OC (centres unmarked)", "human TLR9 (Homo sapiens (Human), UniProt Q9NR96)", "nM", 744),
    ("Cc1cc(-c2[nH]c3ccc(-c4nnc(C5CCCN(C)C5)o4)cc3c2C(C)C)ccn1 (centres unmarked) [Example 159]", "human TLR9 (Homo sapiens (Human), UniProt Q9NR96)", "nM", 1230),
]

Prompt line: Return IC50 for the following compound: COc1ccc(-c2[nH]c3ccc(-c4nnc(C[C@H]5CCCCN5)o4)cc3c2C(C)C)cc1OC
Response line: 706

----------
Reported pIC50 is given for each of the following compounds.
targetEntity: human TLR7 (Homo sapiens (Human))
assayExplanation: TLR7 inhibition reporter assay (HEK-Blue, SEAP)
experimentalConditions: HEK-Blue cells overexpressing human TLR7, gardiquimod 7.5 μM stimulation
Source text: TLR7/8/9 Inhibition Reporter Assays HEK-Blue™-cells (Invivogen) overexpressing human TLR7, TLR8 or TLR9 receptors were used for screening inhibitors of these receptors using an inducible SEAP (secreted embryonic alkaline phosphatase) reporter gene under the control of the IFN-β minimal promoter fused to five NF-κc Band AP-1-binding sites. […]
pIC50 (log units): -log10 of the concentration in mol/L.

The cases that follow already have their pIC50 on record.
# compound, valueObserved
data = [
    ("CNC(=O)CN1CCc2cc(-c3ccc4[nH]c(-c5ccnc(C)c5)c(C(C)C)c4c3)sc2C1", 7.03),
    ("COc1ccc(-c2[nH]c3ccc(-c4nnc(C(=O)N5CCN(C(C)=O)CC5)o4)cc3c2C(C)C)cc1OC", 6.25),
    ("Cc1cc(-c2[nH]c3ccc(-c4ccc(N)nc4)cc3c2C(C)C)cc(C)n1", 7.89),
]

Prompt line: Return pIC50 for the following compound: CCc1c(-c2ccc(OC)c(OC)c2)[nH]c2ccc(-c3noc(CCC4CCNCC4)n3)cc12
Response line: 6.13

Prompt line: Return pIC50 for the following compound: COc1ccc(-c2[nH]c3ccc(-c4cnc(N5CCN(C)CC5)nc4)cc3c2C(C)C)cc1OC
Response line: 7.19

Prompt line: Return pIC50 for the following compound: CC(=O)N1CCc2nc(-c3ccc4[nH]c(-c5cc(C)nc(C)c5)c(C(C)C)c4c3)sc2C1
Response line: 8.19

Prompt line: Return pIC50 for the following compound: COc1ccc(-c2[nH]c3ccc(-c4nnc(C(=O)N5CC6CNCC6C5)o4)cc3c2C(C)C)cc1OC (stereo not drawn)
Response line: 7.29

Prompt line: Return pIC50 for the following compound: CC(C)c1c(-c2ccnc3[nH]ncc23)[nH]c2ccc(-c3cc4c(s3)CNCC4)cc12
Response line: 7.49

Prompt line: Return pIC50 for the following compound: COc1ccc(-c2[nH]c3ccc(-c4cccc(C(=O)N(C)CCc5ccccn5)c4)cc3c2CC(F)(F)F)cc1OC
Response line: 6.01

Prompt line: Return pIC50 for the following compound: COc1ccc(-c2[nH]c3ccc(-c4cnc(N5CCN(C6CCCC6)CC5)nc4)cc3c2C(C)C)cc1OC
Response line: 5.81

Prompt line: Return pIC50 for the following compound: Cc1cc(-c2[nH]c3ccc(-c4ccnc(C5CCNCC5)c4)cc3c2C(C)C)cc(C)n1
Response line: 8.30

Prompt line: Return pIC50 for the following compound: COc1ccc(-c2[nH]c3ccc(-c4nnc(C5CCNC5)o4)cc3c2C(C)C)cc1OC (stereo not drawn)
Response line: 7.47
